assay: protein stability index of a GFP-peptide fusion (yeast GPS) (PSI 1-4); higher = more stable; sorted into four equal gates, so the index is relative within each strain; details: ubr1∆
Please go through the items and note down their protein stability index.

Query block: Could you please provide reported protein stability index for HLEEYGYLIQVLLTFLQ [YCS4] ? Thanks!
Result block: 1.13

Query block: Name the recorded protein stability index of the sequence listed here: PLSRINENENFGYDIPL [YML103C/NUP188]
Result block: 3.08

Query block: Consider the sequence ESLYDLIEFQPSQGVHY [MED6] and give its recorded protein stability index.
Result block: 2.7

Query block: Provide one value: measured protein stability index of TTKLAFLVEYEGQENNY [SIR4]
Result block: 3.19

Query block: Give protein stability index for EATLESKLKEEEAALLI [ESC2]
Result block: 2.91

Query block: For the sequence ATSSTNANAGLFNKPPS [YOR098C/NUP1] , give its reported protein stability index.
Result block: 3.3

Query block: Indicate the recorded protein stability index value for this sequence: SRKQKIAKTFTVDVSSP [RPL22A]
Result block: 2.68

Query block: Please report the measured protein stability index for KINTRGAEDPKVLINDQ [SWI1]
Result block: 3.11

Query block: Find the measured protein stability index of EIMYTGVSISVSFNSKQ [SMC3] and report it.
Result block: 2.29

Query block: Could you please provide reported protein stability index for EMNLHVPQTEEARAEAI [RPO31] ? Thanks!
Result block: 3.12

Query block: Give a short answer stating reported protein stability index for SGKSNFFAAIRFVLSDD [SMC3] .
Result block: 3.22

Query block: Kindly indicate its recorded protein stability index. Item: VKLTYNSPSSALRALQE [YDL088C/ASM4]
Result block: 2.03

Query block: Using known records, supply protein stability index for DEEESNDEKQKAQDVDV [RPN13]
Result block: 3.32

Query block: Supply protein stability index value. Item: VLAGDTRNITDYSINSR [PRE7]
Result block: 3.24

Query block: Supply recorded protein stability index for FAFWNLLVKFIKFFWNN [YLR018C/POM34] here.
Result block: 1.36

Query block: Note down protein stability index recorded for DDENEPKRKRRLPVSED [YOR098C/NUP1]
Result block: 3.06

Query block: Provide protein stability index value for the following sequence: FSFTEPAQKDSSVVSEP [YOR098C/NUP1]
Result block: 3.26

Query block: Supply protein stability index value. Item: ELLDQVTLGREGQIIQR [CDC53]
Result block: 3.21

Query block: Supply recorded protein stability index for MRILPRETDPLVYNMTS [RPT4] here.
Result block: 2.73

Query block: Quick one: give measured protein stability index for PSLNKTINGKVNGRTKS [GAL11]
Result block: 3.11

Query block: Fill in protein stability index for record EQDALFITRLAQGLLHL [RPN1]
Result block: 2.29

Query block: Dear colleague, please send me the reported protein stability index for SGTDGSTIGILLLTIQL [SRP72] when you can.
Result block: 3.15

Query block: Provide protein stability index value for the following sequence: PRQTKKAKAQAQAQAQA [PGD1]
Result block: 3.06

Query block: Item AKKLPNGNWEVGVHIAD [DIS3] : provide protein stability index
Result block: 3.25

Query block: Answer with reported protein stability index of QRETSGMIVISMENYHL [SRB8]
Result block: 2.35

Query block: Determine its reported protein stability index: HDSILHSRILPKKALKV [RRP43]
Result block: 1.75

Query block: Annotate the sequence AAMVPFIKFKLIQQVPP [CDC53] with its measured protein stability index.
Result block: 2.07

Query block: Return the recorded protein stability index value; entry: NDSNPSFSFSIPSKNTP [YLR335W/NUP2]
Result block: 2.64

Query block: Input VIFLSSLLTLVGSVTYQ [YJL039C/NUP192] , output reported protein stability index.
Result block: 1.2

Query block: Answer with the recorded protein stability index of LNLPLQFSLPNGDNSTT [SNF12] only.
Result block: 2.08

Query block: Determine from records and report protein stability index for YNALFQQNIKFRRDFLL [YJL039C/NUP192]
Result block: 2.3

Query block: Give the reported value of protein stability index for this record: SALEQAIIYQRGKDGKL [YGL100W/SEH1]
Result block: 3

Query block: Give the reported protein stability index for this sequence. KLLKSLLLNYLELIGVL [MED7]
Result block: 1.33

Query block: Provide only the value of recorded protein stability index for KKNNLEFGTYGKYVIAG [RPN14]
Result block: 2.1

Query block: Please give measured protein stability index of the following entry: DDSLNRLAQNDGLLKNV [RPS21A]
Result block: 3.38

Query block: State its protein stability index: DRAQNSYQPMYQRPMQV [SSN3]
Result block: 2.64

Query block: Given the sequence QVATKYASLKLPNQIPG [YMR129W/POM152] , write its reported protein stability index.
Result block: 1.84

Query block: Specify protein stability index for ESFTEELSNELSRLSTA [MED1] and stop.
Result block: 3.21

Query block: Please report protein stability index for the following sequence: GQSINDSLKKLLPQWDD [ARP9]
Result block: 2.88

Query block: Give recorded protein stability index. APKGSTDPKELYNNAHV [RPC40]
Result block: 3.21

Query block: Dear colleague, please send me the reported protein stability index for VLPIFTTVFFSRQKSGL [YML031W/NDC1] when you can.
Result block: 1.11

Query block: Give the reported protein stability index for this sequence. NNDDDDNSVEQGRRLGE [MCD1]
Result block: 3.37

Query block: Return protein stability index for the following sequence: AIGTKRYDSNSGGEREI [RPT2]
Result block: 3.5

Query block: # return recorded protein stability index for input DEPMTTFYKCVNCGHRW [RPC11]
Result block: 2.82

Query block: Return the recorded protein stability index value; entry: DLNTRISVIETIRVVTE [RPN5]
Result block: 2.97

Query block: Supply measured protein stability index of KRNGDEVYTLVDSQGLP [ARP7] in your reply.
Result block: 3.21

Query block: Identify measured protein stability index corresponding to DNVIVINHKINNKITQL [SIR3]
Result block: 2.2

Query block: Indicate its recorded protein stability index; the sequence in question is DSIPRDVAYLLKSESAT [YGL172W/NUP49]
Result block: 3.19

Query block: Assign protein stability index to the following record: EWFEQNNSEQDQEIVIQ [ISW2]
Result block: 3.25

Query block: Fill in reported protein stability index for this entry: GAIDEALEEAKLSDNIS [YDL116W/NUP84]
Result block: 3.3

Query block: For the sequence NKLGALKTNFETEWNLQ [RPB11] , report protein stability index.
Result block: 2.95

Query block: Report protein stability index for LVHDGLARGLRESTKAL [RPS12]
Result block: 2.83

Query block: Entry VALTGLLIRSKTEDPKG [YML031W/NDC1] needs its protein stability index filled in; supply it.
Result block: 2.28

Query block: Output measured protein stability index for this item: DHTVDEIDHVEYYVMMD [SRB8]
Result block: 3.02

Query block: Please report protein stability index for the following sequence: PALVGKLRGDLREAPAD [SNF6]
Result block: 2.5

Query block: Name the recorded protein stability index of the item PRSDDLEATWNFIEPGI [CDC53] in your answer.
Result block: 3.02

Query block: Tell me measured protein stability index for KAEIPPEYAKVGDFLLQ [SIN4] please.
Result block: 1.46

Query block: Tell me protein stability index reported for ATAVAHVKAGKGLIKVN [RPS16A]
Result block: 1.21

Query block: Tell me measured protein stability index for EVDEKPTETYSDVGGLD [RPT5] please.
Result block: 3.23
